System: HEL
Method Description: cell viability (% survival relative to DMSO control, bortezomib = 0%); higher = less cytotoxic
Assay Conditions: 1 nM; 72 h
Measurement Label: cell viability (%)
Give the value in % but do not write % after it.

Any idea what cell viability was measured for O=c1c(-c2ccc(O)cc2)coc2cc(O[C@@H]3O[C@H](CO)[C@@H](O)[C@H](O)[C@H]3O)ccc12 [Daidzin] ?
93

Which value of cell viability has been reported for c1cc(-c2cnn3cc(-c4ccc(OCCN5CCCCC5)cc4)cnc23)ccn1 [Dorsomorphin] in the records?
87.1

What does the data say about its cell viability? Entry: CN(Cc1cnc2nc(N)nc(N)c2n1)c1ccc(C(=O)N[C@@H](CCC(=O)O)C(=O)O)cc1 [Methotrexate]
102

cell viability lookup needed for CCn1c(=Cc2cccc[n+]2CC)sc(=C2Sc3ccccc3N2C)c1=O [MKT 077] , thanks.
117

Using the record for CCc1c(C(=O)C(N)=O)c2c(OCC(=O)O)cccc2n1Cc1ccccc1 [Varespladib] , report its cell viability.
94.8

# lookup: cell viability of C=CCN(C)CCCCCCOc1ccc(C(=O)c2ccc(Br)cc2)c(F)c1.O=C(O)/C=C/C(=O)O [Ro 48-8071 fumarate]
112

Given CC(C)(C)c1ccc(S(=O)(=O)NCc2ccc(C(=O)Nc3cccnc3)cc2)cc1 [STF-31] , state its recorded cell viability.
107

Request the reported cell viability associated with Cc1c(Cl)cccc1S(=O)(=O)Nc1nc(CC(=O)N2CCN(C)CC2)cs1 [BVT-2733]
106

I am curious: what cell viability value has been reported for Cn1cc(-c2ccncc2)c(-c2ccc(OCc3ccc4ccccc4n3)cc2)n1 ?
93

Quick check: cell viability of O=c1cc(N2CCOCC2)oc2c(-c3ccccc3)cccc12 ?
133

###

Tested on: Mono-Mac-6
Method Description: cell viability (% survival relative to DMSO control, bortezomib = 0%); higher = less cytotoxic
Assay Conditions: 10 nM; 72 h
Assignment: determine reported cell viability for the given molecules.
Field: numeric (%). Do not append units.

Lab note: need cell viability with Mono-Mac-6 for entry Cc1nc(-c2ccccc2)sc1C(=O)Nc1ccc(S(N)(=O)=O)cc1 , please look it up.
102

Param readout = cell viability; param system = Mono-Mac-6; param query = OC[C@H]1NC[C@H](O)[C@@H](O)[C@@H]1O ; response: value
107

Look up cell viability with Mono-Mac-6 for this molecule: COC(=O)c1cc2c(C(F)(F)F)cc(-c3ccccc3)cc2n1O
102

###

Tested on: K-562
Assay Conditions: 72 h
Measurement Label: IC50 (cell viability)

Would you mind telling me what IC50 (cell viability) value was observed for CCCc1nc(C)c2c(=O)nc(-c3cc(S(=O)(=O)N4CCN(CC)CC4)ccc3OCC)[nH]n12 ?
> 10 µM

I would be grateful if you could share the reported IC50 (cell viability) for c1cc(-c2cnn3cc(-c4ccc(OCCN5CCCCC5)cc4)cnc23)ccn1 .
> 10 µM

Return reported IC50 (cell viability); argument: O=C([O-])CC(O)(C(=O)[O-])C(O)C(=O)[O-].[K+].[K+].[K+] (stereo not drawn) [Hydroxycitrate]
> 10 µM

###

Tested on: BV-173
Assay Conditions: 72 h
Measurement Label: IC50 (cell viability)

Would you kindly share the measured IC50 (cell viability) for Cc1c(Cl)cccc1S(=O)(=O)Nc1nc(CC(=O)N2CCN(C)CC2)cs1 [BVT-2733] ?
> 10 µM

For the molecule shown here, CO[C@H]1C[C@@H]2CC[C@@H](C)[C@@](O)(O2)C(=O)C(=O)N2CCCC[C@H]2C(=O)O[C@H]([C@H](C)C[C@@H]2CC[C@@H](OC(=O)C(C)(CO)CO)[C@H](OC)C2)CC(=O)[C@H](C)/C=C(\C)[C@@H](O)[C@@H](OC)C(=O)[C@H](C)C[C@H](C)/C=C/C=C/C=C/1C [Temsirolimus] , give the reported IC50 (cell viability).
0.0039 µM

Any idea what its IC50 (cell viability) is? The molecule is Cc1nc(-c2ccccc2)sc1C(=O)Nc1ccc(S(N)(=O)=O)cc1
> 10 µM

Item under review: Cn1cc(-c2ccncc2)c(-c2ccc(OCc3ccc4ccccc4n3)cc2)n1 . Reported IC50 (cell viability)?
> 10 µM

###

Tested on: MV4-11
Method Description: cell viability (% survival relative to DMSO control, bortezomib = 0%); higher = less cytotoxic
Assay Conditions: 1000 nM; 72 h
Measurement Label: cell viability (%)
Numeric answer only, unit % assumed.

Given the entry CCN(CC)C(=S)SSC(=S)N(CC)CC [Disulfiram] , what cell viability was observed with MV4-11?
88.7

Under MV4-11: cell viability value of OC[C@H]1NC[C@H](O)[C@@H](O)[C@@H]1O [Duvoglustat] ?
92.6

Param readout = cell viability; param system = MV4-11; param query = CCc1c(C(=O)C(N)=O)c2c(OCC(=O)O)cccc2n1Cc1ccccc1 [Varespladib] ; response: value
88.3

Request - read-out cell viability | tested on MV4-11 | molecule N[C@@H](CC(=O)N1CCn2c(nnc2C(F)(F)F)C1)Cc1cc(F)c(F)cc1F [Sitagliptin]
92.2

###

Test system: NOMO-1
Method Description: cell viability (% survival relative to DMSO control, bortezomib = 0%); higher = less cytotoxic
Assay Conditions: 10000 nM; 72 h
Counter-ions that a name gives are not always drawn.
Measurement Label: cell viability (%)
Return type: number; implicit unit %.

Endpoint output: cell viability of O=c1c(-c2ccc(O)cc2)coc2cc(O[C@@H]3O[C@H](CO)[C@@H](O)[C@H](O)[C@H]3O)ccc12 . Value?
103

Give its cell viability value. Item: CCN(CCO)CCCC(C)Nc1ccnc2cc(Cl)ccc12 (stereo unspecified) [Hydroxychloroquine sulfate]
98.2

Given CCOC(=O)c1sc(NC(=O)c2ccco2)c(SC#N)c1C , state its recorded cell viability.
94.5

Find the recorded cell viability belonging to N[C@@H](CC(=O)N1CCn2c(nnc2C(F)(F)F)C1)Cc1cc(F)c(F)cc1F and report it.
100

Bench note: what cell viability did O=C1C(SCCO)=C(SCCO)C(=O)c2ccccc21 show?
-0.348

Which cell viability is listed for Cc1c2c(=O)n(-c3ccccc3Cl)[nH]c2cc(=O)n1Cc1ccccn1 ?
98.3

May I ask what cell viability has been recorded for O=C(NCCN1CCC(n2c(O)nc3ccccc32)CC1)c1cc2cc(F)ccc2[nH]1 ?
95.3

Bench note: what cell viability did O=c1cc(-c2ccccc2)oc2c1ccc1ccccc12 show?
95.2

Requested read-out: cell viability. Entry: CCCc1nc(C)c2c(=O)nc(-c3cc(S(=O)(=O)N4CCN(CC)CC4)ccc3OCC)[nH]n12
93.1

cell viability for CC[C@H](C)[C@H](N)C(=O)N1CCSC1 ?
92.9

Query (compound): CCN(CC)C(=S)SSC(=S)N(CC)CC ; field requested: cell viability
88.9
